- measured.on: JAK2 (Homo sapiens, UniProt O60674)
- Construct: made in house; host or cells: SF9 insect cells (baculovirus)
- Sequence (O60674 812-1132): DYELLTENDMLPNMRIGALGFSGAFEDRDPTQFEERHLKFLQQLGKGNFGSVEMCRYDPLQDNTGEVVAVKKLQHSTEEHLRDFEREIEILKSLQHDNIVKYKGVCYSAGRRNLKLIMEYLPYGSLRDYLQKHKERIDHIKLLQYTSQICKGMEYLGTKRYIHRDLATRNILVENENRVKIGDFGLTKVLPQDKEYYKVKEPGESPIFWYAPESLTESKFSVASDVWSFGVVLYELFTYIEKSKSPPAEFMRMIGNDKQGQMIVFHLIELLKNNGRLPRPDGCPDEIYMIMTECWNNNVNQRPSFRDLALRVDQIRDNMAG
- experiment.description: JAK2 inhibition (Table 4)
- Type: biochemical
- condition.context: read-out: JAK2 Ki
reported.property: log10 Ki (log10 of the value in nM)
Remember, log10 of Ki, in nM.

>>> test_value("Cc1nc2cnc3[nH]ccc3c2n1[C@@H]1CCC[C@@](C)(O)C1 [Example 892]")
2.16

GET log10 Ki | system: JAK2 (Homo sapiens, UniProt O60674) | item: O=C(Cc1nc2cnc3[nH]ccc3c2n1C1CCCOC1)NC1CCOCC1 (racemic) [Example 983]
2.20

Answer briefly: log10 Ki recorded on JAK2 (Homo sapiens, UniProt O60674) for CCN1CCC(n2c(CNS(C)(=O)=O)nc3cnc4[nH]ccc4c32)C(F)(F)C1 (stereo not shown) [Example 915]
1.45

Specify the recorded log10 Ki for OCc1nc2cnc3[nH]ccc3c2n1C1CCNCC1 [Example 236] , system: JAK2 (Homo sapiens, UniProt O60674).
2.10

Specify the recorded log10 Ki for N#CCC1CCC(n2c(CO)nc3cnc4[nH]ccc4c32)CC1 (mixture of isomers) [Example 643] , system: JAK2 (Homo sapiens, UniProt O60674).
-0.02

Look up and report log10 Ki, with JAK2 (Homo sapiens, UniProt O60674) as system, for Cc1nc2cnc3[nH]ccc3c2n1C1CCC(NC(=O)N2CC(F)(F)C2)CC1 (stereo not shown) [Example 748]
1.56

Fill: log10 Ki (JAK2 (Homo sapiens, UniProt O60674)) for this molecule N#CCCNC1CC(n2cnc3cnc4[nH]ccc4c32)C1 (stereo not shown) [Example 331]
1.20

Specify log10 Ki for CN1CCCCC1C(=O)N1CCC(n2cnc3cnc4[nH]ccc4c32)CC1 (single isomer, unassigned) [Example 196a] , system JAK2 (Homo sapiens, UniProt O60674).
3.13

State measured log10 Ki of the molecule Fc1cccc(CN2CCC[C@@H](n3cnc4cnc5[nH]ccc5c43)C2)c1 [Example 47] with JAK2 (Homo sapiens, UniProt O60674).
1.46

Enter log10 Ki (test system JAK2 (Homo sapiens, UniProt O60674)) for CC(C)(C)OC(=O)N1CCC(C)(n2cnc3cnc4[nH]ccc4c32)CC1 [Example 132]
2.29

Specify log10 Ki for c1cc2c(ncc3ncn([C@@H]4CCCN(Cc5cocn5)C4)c32)[nH]1 [Example 8] , system JAK2 (Homo sapiens, UniProt O60674).
1.64

For JAK2 (Homo sapiens, UniProt O60674), give the measured log10 Ki of the entry Cc1nc2cnc3[nH]ccc3c2n1-c1ccc(C#N)cc1 [Example 183]
1.65

Give log10 Ki for this entry on JAK2 (Homo sapiens, UniProt O60674): N#CCCN1CCC(n2c(CC(=O)N3CCS(=O)(=O)CC3)nc3cnc4[nH]ccc4c32)CC1 [Example 267]
1.75

Send back JAK2 (Homo sapiens, UniProt O60674) log10 Ki of O[C@@H]1CC[C@@H](n2cnc3cnc4[nH]ccc4c32)C1 [Example 711] only.
1.57

Fill: log10 Ki (JAK2 (Homo sapiens, UniProt O60674)) for this molecule COC(=O)CC(c1cccnc1)N1CCC(n2cnc3cnc4[nH]ccc4c32)CC1 (racemic) [Example 126]
1.18

// fetch log10 Ki; item: COC(=O)N(C)[C@H]1CC[C@H](n2cnc3cnc4[nH]ccc4c32)CC1 [Example 143] ; system: JAK2 (Homo sapiens, UniProt O60674)
0.85
